Record form. Attribute: GI50. Fill in for each entry.
- System: EKVX
- assay summary: NCI tumour cell line growth inhibition, 48 h
Active and inactive are the calls of the source. Cut-off read from the data, not from the text of the source: active = GI50 up to about 1.1 µM and inactive = higher.

COc1ccc(C2=NN(C(=O)c3ccccc3)C(O)(c3cc(F)c(Cl)cc3Cl)C2)cc1OC (stereo unspecified)
32.7 µM (inactive)
COP(=O)(/C=C/c1cc(C(=O)OCc2ccccc2)n(S(=O)(=O)c2ccccc2)c1)OC
> 100 µM (inactive)
CCOC(=O)Nc1cc2c(c(N)n1)N=C(c1ccc3ccccc3c1)CN2
2.51 µM (inactive)
S=C1NC(c2ccccc2)=NC(Cc2ccccc2)(c2ccccc2)N1c1ccccc1 (stereo unspecified)
> 100 µM (inactive)
O=C1C=C(C2OC(CO)C(O)C2O)C(=O)N1 (stereo unspecified)
> 100 µM (inactive)

For the 4 molecules below, give their GI50 values.
1. Cc1cc(C)nc(NS(=O)(=O)c2ccc(NN=c3c4ccccc4n(C)c4ccccc34)cc2)n1
2. CCOC(=O)c1cc(OC(=O)CC)c2c(OC)ccc(OC)c2c1
3. Cc1ccc(/C=C/C(=O)c2sc(-c3cccnc3)nc2C)cc1
4. COC(=O)Cc1cccc2c1CCC2=O

Result:
1. 26.4 µM (inactive)
2. 35.8 µM (inactive)
3. > 100 µM (inactive)
4. > 100 µM (inactive)

For the 2 molecules below, give their GI50 values.
1. Cc1ccc(C(=O)O)c(/C=C2\Cc3ccc(C)cc3C2=O)c1
2. CC(C)Oc1cccc(N2C(Nc3ccccc3)=Nc3ccncc3S2(=O)=O)c1

Result:
["98.9 µM (inactive)", "40.5 µM (inactive)"]
